Measured Combination Indices at 50% HIV Inhibition (Confidence Interval) accompanies every entry in the list below.
Tested on: HIV-1 303B
TEST NAME: microbe, parasite or virus in culture
Format: cell-based
TEST CONTEXT: in combination with Example 19; EC50 ratio Example 19:comparator 1:2.5; 95% CI in parenthesis
ENDPOINT LABEL: Combination Indices at 50% HIV Inhibition (Confidence Interval)

STRUCTURE SMILES STRING: CC(C)c1nc(CN(C)C(=O)N[C@H](C(=O)N[C@@H](Cc2ccccc2)C[C@H](O)[C@H](Cc2ccccc2)NC(=O)OCc2cncs2)C(C)C)cs1
TARGET OF ASSAY: HIV-1 303B
MEAS VALUE: 0.73 (0.59, 0.88)
--
STRUCTURE SMILES STRING: CC(C)Nc1cccnc1N1CCN(C(=O)c2cc3cc(NS(C)(=O)=O)ccc3[nH]2)CC1
TARGET OF ASSAY: HIV-1 303B
MEAS VALUE: 0.68 (0.58, 0.77)
--
STRUCTURE SMILES STRING: O=C1Nc2ccc(Cl)cc2[C@@](C#CC2CC2)(C(F)(F)F)O1
TARGET OF ASSAY: HIV-1 303B
MEAS VALUE: 0.95 (0.86, 1.04)

Cited source: patent US7491819B1
